All figures here come from the supplement of paper PMC9170038.

Would you mind telling me the reported apparent KD of MS2 coat protein of each entry?
Test system: MS2 coat protein
experiment: apparent KD of MS2 coat protein; designed switch direction (-1 OFF switch, 1 ON switch): 1; higher = weaker reporter binding
condition-summary: Eterna round: R95; input ligand: microRNA oligo, concentration not stated
Give bare numbers, in nM.

UAGAGAGGAAGCGAGGAUAUCGUGGGAGGGACAUGAGGAUCACCCAUGUAGGAUGUUGAGAGGAACGAGAAGGCGCAGGAAAGUA [JR_SS2_Sub076] (puzzle: Same State 2)	63.5
UACAAUCUAUCUGAGGAUAUCAUGAAAAAAACAUGAGGAUCACCCAUGUGCAGGAAAACUGCAUAUGAGAAGGCAGAUAGAUUGA [salish99_SS2_r3_005] (puzzle: Same State 2)	585
CGUCCGGCCUGUGCUGGCCGGUUGCAUGUACAUGAGGAUCACCCAUGUUCAUGUGCAGGCUUUUUGCUCGUCUUGUG [salish99_mir208a_013] (puzzle: Sensor for hsa-mir-208a)	11.2
GUAGGACAUGAGGAUCACCCAUGUGGGAGGGAACGAGGAUAUGUGAAAGGAUUGAAGAGGACAGAAGGCGUGGAGG [JR_SS1_Sub026] (puzzle: Same State 1)	30.1

Task item: Find the recorded apparent KD of MS2 coat protein belonging to AGCUAUCGAAAACGAUAGCAAAAGCAUGUACAUGAGGAUCACCCAUGUCAUGUAUAAGCUUUUUGCUCGUCUUAAAA [Zipper 23 - 12] (puzzle: Sensor for hsa-mir-208a) and report it.
Reply: 9.86

----------
Tested on: MS2 coat protein
experiment: apparent KD of MS2 coat protein; designed switch direction (-1 OFF switch, 1 ON switch): -1; higher = weaker reporter binding
condition-summary: input ligand: FMN 200 uM
Rule: apparent KD of MS2 coat protein under 30 nM gives 0.0, otherwise 1.0.

Reference set (6 entries):
CGUGUGUAAGGAUAUUUUGCAAGGCGGUGGACCCGCCUAUUAGAGAAGGUACAUGAGGAUCACCCAUGUGAGCC [Eternabot (L2) Solution 74] (Eterna round: R97, puzzle: Exclusion 4)	1.0
UUUUAGCAAGCGAGAAUUAACAUGAGGAUCACCCAUGUGCAUCCAGAAUUACUUUUAGAACAAGCUCGUCUUAUAUA [JR_STOV1_v2_Sub081] (Eterna round: R97, puzzle: Sensor, turn-off variant 1)	1.0
CGUAUGUAAGGAUAUUAGUAGUAGUCAGAAUAGACUAUUACUGAGAAGGUACAUGAGGAUCACCCAUGUUAGCG [Eli x4 4.15] (Eterna round: R97, puzzle: Exclusion 4)	1.0
CGAUAAAAGACAGGAUAUGAGGAGAGAGAGAGAUCAGAAGGGUCACAUGAGGAUCACCCAUGUGAGUUCUCGAAAGGAAAGAGG [Prohibition 51 - Jieux - Exclusion NG 1] (Eterna round: R96, puzzle: Exclusion NG 1)	0.0
CCAUGGGAGCGAGGAUAUAGCCCAUGGGAAGAACUAGAAGGCGCAGACAUGAGGAUCACCCAUGUGUUCAUGAGGAGGUGGACA (Eterna round: R96, puzzle: Exclusion NG 1)	1.0
GUUCAGUCAGGAUAUCAAUCCGCCUGUGAUACGCAGGCGGCUGAGAAGGGACAUGAGGAUCACCCAUGUAAAGA [jl-ex4-4.21 ViennaUCT mod] (Eterna round: R97, puzzle: Exclusion 4)	1.0

Task item: Entry GAGUUAGCGUGAGGAAUAUACAUGAGGAUCACCCAUGUUAGCAAAUAUAUUGCUCGUCUUAUAACAACAAUUAACUC [Alarm 9 - Jieux - Sensor, turn-off variant 1] (Eterna round: R97, puzzle: Sensor, turn-off variant 1) : is its apparent KD of MS2 coat protein no less than 30 nM?
Reply: 0.0

Task item: Entry GUUUAGUGAGGAUAUGUGGCUUCGAUCGUGCGAAGGAGGCUACAGAAGGCACAUGAGGAUCACCCAUGUUCCUC [salish99_ex4_r4_302] (Eterna round: R97, puzzle: Exclusion 4) : is its apparent KD of MS2 coat protein no less than 30 nM?
Reply: 1.0

Task item: Entry AAAUAGCGAGGAUAUACUGUAUACGAAAGUAUACGCAUGGCACAUGAGGAUCACCCAUGUAGAAGGCGCUAUAA (Eterna round: R97, puzzle: Exclusion 2) : is its apparent KD of MS2 coat protein no less than 30 nM?
Reply: 1.0

Task item: Entry ACAUGAGGAUCACCCAUGUCAGGCGGGUCCUCUCCGGCUGUUGAGGAUAUAGUUCGGUAUCCGCGCUAGAAGGUGAGGGCCGGC [Aenatbe mod 21] (Eterna round: R96, puzzle: Exclusion NG 3) : is its apparent KD of MS2 coat protein no less than 30 nM?
Reply: 0.0

Task item: Entry GAGAACUGAGGAUAUACAUGAGGAUCACCCAUGUGAAGAAGAAAGUAGUGAUGGUUGGGUAGAAGGCAGAGAGA [JR_Ex3_Sub065] (Eterna round: R97, puzzle: Exclusion 3) : is its apparent KD of MS2 coat protein no less than 30 nM?
Reply: 1.0

Task item: Entry CCGCUGUGAGGAUAUUAGUAGUAGUCAGAAUAGACUAUUACUGAGAAGGCACAUGAGGAUCACCCAUGUAGCGG [Eli x4 4.25] (Eterna round: R97, puzzle: Exclusion 4) : is its apparent KD of MS2 coat protein no less than 30 nM?
Reply: 0.0

Task item: Entry CAUAAUGCAGGAUAUACCAAAUGGCAGUGAAUGCGUGCGCAACAUGAGGAUCACCCAUGUAGAAGGGCACAAGA [Eternabot (Original) Solution 27] (Eterna round: R97, puzzle: Exclusion 2) : is its apparent KD of MS2 coat protein no less than 30 nM?
Reply: 0.0

Task item: Entry GGUUCGAGUGUGAGGAUAUGCUGGUCCUUGGAUCAGCAGAAGGCACAUGAGGAUCACCCAUGUGGUAACGGACC [Mat - Exclusion 4 - Eli Mod - D35] (Eterna round: R97, puzzle: Brourd's mod of Exclusion 4) : is its apparent KD of MS2 coat protein no less than 30 nM?
Reply: 1.0

Task item: Entry UAACGGGUUUCUUCGUUUACAACAUGAGGAUCACCCAUGUUUGAGGAUAUCCACUAAGCUCUUCAGGAGAAGGCAAACAUAAUG [Teanarxe] (Eterna round: R96, puzzle: Exclusion NG 3) : is its apparent KD of MS2 coat protein no less than 30 nM?
Reply: 0.0

Task item: Entry AUCAGCUCGUGAGGAUAUAUAUUAACAUGAGGAUCACCCAUGUAAGAUCAGCUUCGGCAGUUAAUAUAGAAGGCACGAGCUGAU [ENG2/14-A2] (Eterna round: R96, puzzle: Exclusion NG 2) : is its apparent KD of MS2 coat protein no less than 30 nM?
Reply: 1.0

----------
Test system: MS2 coat protein
experiment: apparent KD of MS2 coat protein; designed switch direction (-1 OFF switch, 1 ON switch): -1; higher = weaker reporter binding
condition-summary: input ligand: FMN 200 uM
quantity-kind: apparent KD of MS2 coat protein (nM)
Give bare numbers, in nM.

Past entries and their recorded results:
AGCUAGUCAGGAUAUUCUAAUGAUUACAUGAGGAUCACCCAUGUGAAUGGACAAGGGUGUGAAGAAGGGACUAGCG [Omei Ex5 A10] (Eterna round: R97, puzzle: Exclusion 5)	426
CUCGUGUGAGGAUAUCAACGUCAAGCGUGAGCGAGACGAGAUGAGAAGGUACAUGAGGAUCACCCAUGUGCUCA [Eternabot (Original) Solution 25] (Eterna round: R97, puzzle: Exclusion 4)	83.1
GUUUUCAGACGGAGAUCCGACAUGAGGAUCACCCAUGUCUCACAAGCUUUUUGCUCGUCUUAUACUCCUCUGUUCUC [Elimod 43 - Jieux - Sensor, turn-off variant 1] (Eterna round: R97, puzzle: Sensor, turn-off variant 1)	16.9
ACAAGCUUGUAAUCAUUUAACAUGAGGAUCACCCAUGUAAAUGGAAGAACCAAUUUGAUAUGAUUUACUCGUCUUAU [JR_STOV1_Sub009] (Eterna round: R97, puzzle: Sensor, turn-off variant 1)	257
ACAUGUAUUGCAGGAUAUGGGACACAUGAGGAUCACCCAUGUGACUACAUGUCAUACCAAGCGUCUCAGAAGGGUAUGUACAUG [Ex NG2 #38] (Eterna round: R96, puzzle: Exclusion NG 2)	21.3
AUAACAUGCUGGUGAUCAUACAUGAGGAUCACCCAUGUAACAAGCUUUUUGCUCGUCUUAUAAUUUAAGAUCACCAG [Stov1/7-A2] (Eterna round: R97, puzzle: Sensor, turn-off variant 1)	17.4
ACAUGAGGAUCACCCAUGUGCACGUAAUGGCUCAUGUAGAGUGAGGAUAUGCGUGACGAACGAGCGCAGAAGGCACAAGACUGG [Deportation 16 - Jieux - Exclusion NG 3] (Eterna round: R96, puzzle: Exclusion NG 3)	131
ACUCACGCAGGAUAUACAUGAGGAUCACCCAUGUUCAAAGGGCGCGGGAACAUCGUCUGUAGAAGGGCGAACAU [jl-ex3-4.62 ViennaUCT mod] (Eterna round: R97, puzzle: Exclusion 3)	40.4

Task item: Find the recorded apparent KD of MS2 coat protein belonging to CACCGUUACACAGGAUAUGUUACAUGAGGAUCACCCAUGUAAUAAAUGAGAAUUUCGAAUGUAAUACAGAAGGGUGGAAUCGGC [Ostricism 73 - Jieux - Exclusion NG 2] (Eterna round: R96, puzzle: Exclusion NG 2) and report it.
Reply: 34.7
